- Test system: HCC827
- procedure_details: Antiproliferative activity against human HCC827 cells expressing EGFR del19 mutant assessed as cell growth inhibition measured after 72 hrs by MTT assay
- Type: functional, cell-based
- condition_notes: HCC827, 72 h
reported_endpoint: IC50
Show the value, then the unit it is measured in.

In: API: value(readout=IC50, system=HCC827) for record Cc1ncsc1-c1ccc(CNC(=O)[C@@H]2C[C@@H](O)CN2C(=O)[C@@H](NC(=O)CCCCCCCN2CCN(c3ccc(Nc4ncc5nc(Nc6ccccc6)n(C6CCCC6)c5n4)cc3)CC2)C(C)(C)C)cc1
Out: 0.76 nM

In: Quick check: IC50 on HCC827, item Cc1ncsc1-c1ccc(CNC(=O)[C@@H]2C[C@@H](O)CN2C(=O)[C@@H](NCCOCCOCCN2CCN(c3ccc(Nc4ncc5nc(Nc6ccccc6)n(C6CCCC6)c5n4)cc3)CC2)C(C)(C)C)cc1 ?
Out: 53.5 nM

In: API: value(readout=IC50, system=HCC827) for record Cc1ncsc1-c1ccc(CNC(=O)[C@@H]2C[C@@H](O)CN2C(=O)[C@@H](NC(=O)CCCCCCN2CCN(c3ccc(Nc4ncc5nc(Nc6ccccc6)n(C6CCCC6)c5n4)cc3)CC2)C(C)(C)C)cc1
Out: 0.83 nM

In: Reported IC50 for HCC827, given CN(CCOCCOCCOCCOCCN1CCN(c2ccc(Nc3ncc4nc(Nc5ccccc5)n(C5CCCC5)c4n3)cc2)CC1)CC(=O)Nc1cccc2c1CN(C1CCC(=O)NC1=O)C2=O (stereo not drawn) ?
Out: 2.83 nM

In: Quick check: IC50 on HCC827, item CN1CCN(c2ccc(Nc3ncc4nc(Nc5ccccc5)n(C5CCCC5)c4n3)cc2)CC1 ?
Out: 0.82 nM

In: Which IC50 is reported with HCC827 for this entry: O=C1CCC(N2Cc3c(NC(=O)CCCCCCCN4CCN(c5ccc(Nc6ncc7nc(Nc8ccccc8)n(C8CCCC8)c7n6)cc5)CC4)cccc3C2=O)C(=O)N1 (stereo not drawn) ?
Out: 2.61 nM

In: Query for HCC827: what IC50 does the record show for Cc1ncsc1-c1ccc(CNC(=O)[C@@H]2C[C@@H](O)CN2C(=O)[C@@H](NCCOCCOCCOCCOCCN2CCN(c3ccc(Nc4ncc5nc(Nc6ccccc6)n(C6CCCC6)c5n4)cc3)CC2)C(C)(C)C)cc1 ?
Out: 62 nM

In: I'm curious: which IC50 was measured for Cc1ncsc1-c1ccc(CNC(=O)[C@@H]2C[C@@H](O)CN2C(=O)[C@@H](NCCOCCOCCOCCN2CCN(c3ccc(Nc4ncc5nc(Nc6ccccc6)n(C6CCCC6)c5n4)cc3)CC2)C(C)(C)C)cc1 tested on HCC827?
Out: 54.4 nM

In: What value of IC50 on HCC827 does CN(CCOCCOCCOCCN1CCN(c2ccc(Nc3ncc4nc(Nc5ccccc5)n(C5CCCC5)c4n3)cc2)CC1)CC(=O)Nc1cccc2c1CN(C1CCC(=O)NC1=O)C2=O (stereo not drawn) have?
Out: 2 nM

In: So what IC50 did CN(CCOCCOCCN1CCN(c2ccc(Nc3ncc4nc(Nc5ccccc5)n(C5CCCC5)c4n3)cc2)CC1)CC(=O)Nc1cccc2c1CN(C1CCC(=O)NC1=O)C2=O (stereo not drawn) get with HCC827?
Out: 1.39 nM

In: Query for HCC827: what IC50 does the record show for Cc1ncsc1-c1ccc(CNC(=O)[C@@H]2C[C@H](O)CN2C(=O)[C@@H](NC(=O)CCCCCCN2CCN(c3ccc(Nc4ncc5nc(Nc6ccccc6)n(C6CCCC6)c5n4)cc3)CC2)C(C)(C)C)cc1 ?
Out: 15.8 nM

In: What IC50 appears in the records for this compound with HCC827? C=CC(=O)Nc1cc(Nc2nccc(-c3cn(C)c4ccccc34)n2)c(OC)cc1N(C)CCN(C)C [OSIMERTINIB]
Out: 0.97 nM

In: Field: IC50 (HCC827). Entry: O=C1CCC(N2Cc3c(NC(=O)CCCCCCN4CCN(c5ccc(Nc6ncc7nc(Nc8ccccc8)n(C8CCCC8)c7n6)cc5)CC4)cccc3C2=O)C(=O)N1 (stereo not drawn)
Out: 1.41 nM
